Catalogue of koff values
target: Recombinant human his-tagged IGF 1R extracellular domain protein (human) (UniProt P08069); assay: SPR, captured IgG, IGF-1R ECD-his analyte, dissociation pH 6

# binder, koff
rows = [
    ("VRDN-02543 (antibody, V domains shown) VH: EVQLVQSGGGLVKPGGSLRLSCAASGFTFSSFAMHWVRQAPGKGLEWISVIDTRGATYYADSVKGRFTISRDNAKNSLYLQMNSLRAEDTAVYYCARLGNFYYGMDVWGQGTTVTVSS VL: EIVLTQSPGTLSVSPGERATLSCRASQSIGSSLHWYQQKPGQAPRLLIKYASQHLSGIPDRFSGSGSGTDFTLTISRLEPEDFAVYYCHQSSRLPHTFGQGTKVEIK", "1e-06 s⁻¹"),
    ("VRDN-02554 (antibody, V domains shown) VH: EVQLVQSGGGLVKPGGSLRLSCAASGFTFSSFAMHWVRQAPGKGLEWISVIHTRGATYYADSVKGRFTISRDNAKNSLYLQMNSLRAEDTAVYYCARLGNFYYGMDVWGQGTTVTVSS VL: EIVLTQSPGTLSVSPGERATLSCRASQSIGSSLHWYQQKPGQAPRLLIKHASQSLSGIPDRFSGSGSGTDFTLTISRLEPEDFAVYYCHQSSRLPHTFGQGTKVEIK", "0.000152 s⁻¹"),
    ("VRDN-02562 (antibody, V domains shown) VH: EVQLVQSGGGLVKPGGSLRLSCAASGFTFSSFAMHWVRQAPGKGLEWISVIHTRGATYYADSVKGRFTISRDNAKNSLYLQMNSLRAEDTAVYYCHRLGNFYYGMDVWGQGTTVTVSS VL: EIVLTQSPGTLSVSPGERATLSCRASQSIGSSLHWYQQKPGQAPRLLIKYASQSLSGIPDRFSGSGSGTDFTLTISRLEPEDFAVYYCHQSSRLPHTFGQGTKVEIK", "0.00018 s⁻¹"),
]
